Tested on: SK-BR-3
test: SRB colorimetric assay of cell growth and viability, SK-BR-3
Type: cell-based, human
measurement setup: 48 hours exposure
Where a SMILES comes first, the peptide text is derived from it. Bridges are numbered along the chain shown (N, C = ends). [ ]: non-standard residue; d: D form. The star is where a group is joined. d(aIle) = CC[C@H](C)[C@@H](N)C(=O)O; Hexanoyl(5-Me) = CC(C)CCCC(=O)*; Orn = NCCC[C@H](N)C(=O)O; Dhb = C/C=C(\N)C(=O)O
test readout: TGI SK-BR-3
I'd appreciate it if you included the unit after the number.

// each listed molecule needs a value for TGI SK-BR-3
1. C/C=C1\NC(=O)[C@H](Cc2ccccc2)NC(=O)[C@@H](C(C)C)NC(=O)[C@@H]([C@@H](C)CC)NC(=O)[C@H](NC(=O)[C@H](NC(=O)[C@H](CCCN)NC(=O)[C@H]2CCCN2C(=O)[C@H](NC(=O)[C@@H](NC(=O)[C@@H](NC(=O)[C@H](NC(=O)CCCC(C)C)C(C)C)[C@@H](C)O)C(C)C)C(C)C)[C@@H](C)CC)COC(=O)[C@H](C(C)C)NC1=O [Compound 3, [D-Ser^6]-KF] ({Hexanoyl(5-Me)}-[dV]TV[dV][dP][Orn][d(aIle)][dS][d(aIle)][dV]F[Dhb]V; ester 8-C)
2. C/C=C1\NC(=O)[C@H](Cc2ccccc2)NC(=O)[C@@H](C(C)C)NC(=O)[C@@H]([C@@H](C)CC)NC(=O)[C@H](NC(=O)[C@H](NC(=O)[C@H](CCCN)NC(=O)[C@H]2CCCN2C(=O)[C@H](NC(=O)[C@@H](NC(=O)[C@@H](NC(=O)[C@H](NC(=O)CCCCCCC)C(C)C)[C@@H](C)O)C(C)C)C(C)C)[C@@H](C)CC)[C@@H](C)OC(=O)[C@H](C(C)C)NC1=O [Compound 18, [Oct^14]-KF]

Result:
1: 6.23E−07 Molar; 2: 3.02E−07 Molar

* * *

System: PANC-1
test: SRB colorimetric assay of cell growth and viability, PANC-1
Type: cell-based, human
measurement setup: 48 hours exposure; read-out: LC50 PANC-1
Where a SMILES comes first, the peptide text is derived from it. Bridges are numbered along the chain shown (N, C = ends). [ ]: non-standard residue; d: D form. The star is where a group is joined. d(aIle) = CC[C@H](C)[C@@H](N)C(=O)O; d(aThr) = C[C@@H](O)[C@@H](N)C(=O)O; Hexanoyl(5-Me) = CC(C)CCCC(=O)*; Orn = NCCC[C@H](N)C(=O)O; Dhb = C/C=C(\N)C(=O)O
Could you please report measured CC50 for the items listed next?

{"compound": "C/C=C1\\NC(=O)[C@H](Cc2ccccc2)NC(=O)[C@@H](C(C)C)NC(=O)[C@@H](C(C)C)NC(=O)[C@H](NC(=O)[C@H](NC(=O)[C@H](CCCN)NC(=O)[C@H]2CCCN2C(=O)[C@H](NC(=O)[C@@H](NC(=O)[C@@H](NC(=O)[C@H](NC(=O)CCCC(C)C)C(C)C)[C@@H](C)O)C(C)C)C(C)C)C(C)C)[C@@H](C)OC(=O)[C@H](C(C)C)NC1=O [Compound 12, [D-Val^5, D-Val^7]-KF] ({Hexanoyl(5-Me)}-[dV]TV[dV][dP][Orn][dV][d(aThr)][dV][dV]F[Dhb]V; ester 8-C)", "CC50": "6.9 µM"}

// each listed compound needs a value for CC50
1. C/C=C1\NC(=O)[C@H](Cc2ccccc2)NC(=O)[C@@H](C(C)C)NC(=O)[C@@H]([C@@H](C)CC)NC(=O)[C@H](NC(=O)[C@H](NC(=O)[C@H](CCCN)NC(=O)[C@H]2CCCN2C(=O)[C@H](NC(=O)[C@@H](NC(=O)[C@@H](NC(=O)[C@@H](Cc2ccccc2)NC(=O)CCCC(C)C)[C@@H](C)O)C(C)C)C(C)C)[C@@H](C)CC)[C@@H](C)OC(=O)[C@H](C(C)C)NC1=O [Compound 36, [D-Phe^13]-KF]
2. C/C=C1\NC(=O)[C@H](Cc2ccccc2)NC(=O)[C@@H](C(C)C)NC(=O)[C@@H]([C@@H](C)CC)NC(=O)[C@H](NC(=O)[C@H](NC(=O)[C@H](CCCN)NC(=O)[C@H]2CCCN2C(=O)[C@H](NC(=O)[C@@H](NC(=O)[C@@H](NC(=O)[C@H](NC(=O)CCCCC(C)=O)C(C)C)[C@@H](C)O)C(C)C)C(C)C)[C@@H](C)CC)[C@@H](C)OC(=O)[C@H](C(C)C)NC1=O [Compound 27, [6-OHep^14]-KF]
3. C/C=C1\NC(=O)[C@H](Cc2ccccc2)NC(=O)[C@@H](C(C)C)NC(=O)[C@@H]([C@@H](C)CC)NC(=O)[C@H](NC(=O)[C@H](NC(=O)[C@H](CCCN)NC(=O)[C@H]2CCCN2C(=O)[C@H](NC(=O)[C@@H](NC(=O)[C@@H](NC(=O)[C@H](NC(=O)CCCC(C)C)C(C)C)[C@@H](C)O)[C@@H](C)O)C(C)C)[C@@H](C)CC)[C@@H](C)OC(=O)[C@H](C(C)C)NC1=O [Compound 50, [Thr^11]-KF] ({Hexanoyl(5-Me)}-[dV]TT[dV][dP][Orn][d(aIle)][d(aThr)][d(aIle)][dV]F[Dhb]V; ester 8-C)
4. C/C=C1\NC(=O)[C@H](Cc2ccccc2)NC(=O)[C@@H](C(C)C)NC(=O)[C@@H]([C@@H](C)CC)NC(=O)[C@H](NC(=O)[C@H](NC(=O)[C@H](CCCN)NC(=O)[C@H]2CCCN2C(=O)[C@H](NC(=O)[C@@H]2CCCN2C(=O)[C@@H](NC(=O)[C@H](NC(=O)CCCC(C)C)C(C)C)[C@@H](C)O)C(C)C)[C@@H](C)CC)[C@@H](C)OC(=O)[C@H](C(C)C)NC1=O [Compound 47, [Pro^11]-KF] ({Hexanoyl(5-Me)}-[dV]TP[dV][dP][Orn][d(aIle)][d(aThr)][d(aIle)][dV]F[Dhb]V; ester 8-C)

Result:
1. 0.976 µM
2. 6.7 µM
3. ≥ 6.76 µM
4. 6.78 µM
